System: HUT78 CTCL cells
Experiment: Cell apoptosis assay using HUT78 CTCL cells
Type: cell-based, human
Settings: incubated 72 h, read-out: IC50, apoptosis induction
Readout name: IC50 (nM)
Value expressed in nM; do not type the unit.

Problem: Look up IC50 of CN1C(=O)[C@@]23C[C@](C)(C#N)[C@H](c4ccc5c(c4)OCO5)N2C(=O)C1(C)S3=S (stereo partly shown) and report it.
Result: 19.7

* * *

Tested on: HUT78 cells
Experiment: Cell viability assay using HUT78 cells in a CELLTITER-GLO assay
Format: cell-based, human
Readout name: IC50 (nM)
Value expressed in nM; do not type the unit.

Problem: Give HUT78 cells IC50 for the following molecule: CN1C(=O)[C@@]23C[C@](C)(C#N)[C@H](c4ccc5c(c4)OCO5)N2C(=O)C1(C)S3=S (stereo partly shown)
Result: 6.61
